Target: acetylcholinesterase (AChE) isolated from Electrophorus electricus (Electrophorus electricus, UniProt O42275)
Construct: AChE isolated from Electrophorus electricus; from tissue
Sequence (O42275 24-633): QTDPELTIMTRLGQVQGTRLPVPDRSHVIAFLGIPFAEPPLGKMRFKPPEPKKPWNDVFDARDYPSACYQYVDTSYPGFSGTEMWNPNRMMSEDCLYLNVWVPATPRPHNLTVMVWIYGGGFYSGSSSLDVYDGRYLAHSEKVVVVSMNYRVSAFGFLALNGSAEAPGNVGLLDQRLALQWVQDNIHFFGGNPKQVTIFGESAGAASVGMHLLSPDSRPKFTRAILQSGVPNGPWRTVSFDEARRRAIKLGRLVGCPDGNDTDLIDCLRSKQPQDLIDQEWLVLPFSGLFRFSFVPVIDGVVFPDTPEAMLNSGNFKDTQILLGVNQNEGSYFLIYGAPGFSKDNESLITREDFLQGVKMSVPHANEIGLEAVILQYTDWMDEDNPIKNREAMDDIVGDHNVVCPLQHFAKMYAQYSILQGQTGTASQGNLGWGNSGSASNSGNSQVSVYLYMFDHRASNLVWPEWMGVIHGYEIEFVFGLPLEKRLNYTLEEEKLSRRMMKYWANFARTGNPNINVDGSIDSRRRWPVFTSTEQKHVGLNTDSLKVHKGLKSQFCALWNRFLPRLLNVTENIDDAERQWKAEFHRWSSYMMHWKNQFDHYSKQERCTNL
Test: biochemical
Details: AChE isolated from Electrophorus electricus; read-out: AChE IC50
measured.endpoint: IC50

Reference set, count: 4
INSERT INTO results (compound, measured_endpoint, assay_value) VALUES
  ('CC(C)C(=O)N[C@H]1CCC23C[C@]24C(=O)C[C@]2(C)[C@@H]([C@H](C)N(C)C)[C@H](O)C[C@@]2(C)[C@@H]4CC[C@H]3[C@]1(C)CNC([Si](C)(C)C)[Si](C)(C)C (stereo partly shown)', 'IC50', '> 100 µM'),
  ('CCC(=O)N[C@H]1CC=C2C[C@H]3C(=O)C[C@]4(C)[C@@H]([C@H](C)N(C)C)[C@H](O)C[C@@]4(C)[C@@H]3CC[C@H]2[C@]1(C)CO', 'IC50', '> 1 µM'),
  ('CC[C@H](C)C(=O)N[C@H]1CC=C2C[C@H]3C(=O)C[C@]4(C)[C@@H]([C@H](C)N(C)C)[C@H](O)C[C@@]4(C)[C@@H]3CC[C@H]2[C@]1(C)CNCc1ccccc1', 'IC50', '> 100 µM'),
  ('CCC(C)C(=O)N[C@H]1CCC23C[C@]24C(=O)C[C@]2(C)[C@@H]([C@H](C)N(C)C)[C@H](O)C[C@@]2(C)[C@@H]4CC[C@H]3[C@]1(C)CO (stereo partly shown)', 'IC50', '> 100 µM');

What value of IC50 has been recorded for this entry: C[C@@H]([C@H]1[C@H](O)C[C@@]2(C)[C@@H]3CC[C@@H]4C(=CC[C@H](NC(=O)Cc5ccccc5)[C@@]4(C)CO)C[C@H]3C(=O)C[C@]12C)N(C)C
> 1 µM

Next entry: CN[C@@H](C)[C@H]1[C@H](O)C[C@@]2(C)[C@@H]3CC[C@@H]4C(=CCC5N=C(C(C)C)OC[C@]54C)C[C@H]3C(=O)C[C@]12C (stereo partly shown)
0.106 µM

Next entry: CC(C)C(=O)N[C@H]1CCC23C[C@]24C(=O)C[C@]2(C)[C@@H]([C@H](C)N(C)C)[C@H](O)C[C@@]2(C)[C@@H]4CC[C@H]3[C@]1(C)/C=N/Cc1ccccc1 (stereo partly shown)
> 100 µM

Next entry: CC(C)C1=NC2CC[C@H]3C=C4C(=O)C[C@]5(C)[C@@H]([C@H](C)N(C)C)[C@H](O)C[C@@]5(C)[C@@H]4CC[C@H]3[C@]2(C)CO1 (stereo partly shown)
0.112 µM

Next entry: CC(C)C(=O)N[C@H]1CCC23C[C@]24C(=O)C[C@]2(C)[C@@H]([C@H](C)N(C)C)[C@H](OC(=O)C(C)(C)C)C[C@@]2(C)[C@@H]4CC[C@H]3[C@]1(C)CNCc1ccccc1 (stereo partly shown)
20.1 µM

Next entry: CC(C)C(=O)N[C@H]1CCC23C[C@]24C(=O)C[C@]2(C)[C@@H]([C@H](C)N(C)C)[C@H](O)C[C@@]2(C)[C@@H]4CC[C@H]3[C@]1(C)COCc1ccccc1 (stereo partly shown)
16.8 µM

Next entry: CC(C)C(=O)N[C@H]1CCC23C[C@]24C(=O)C[C@]2(C)[C@@H]([C@H](C)N(C)C)[C@H](O)C[C@@]2(C)[C@@H]4CC[C@H]3[C@]1(C)CNCc1ccccc1 (stereo partly shown)
33.9 µM

Next entry: C[C@@H]([C@H]1[C@H](O)C[C@@]2(C)[C@@H]3CC[C@@H]4C(=CC[C@H](NC(=O)c5ccccc5)[C@@]4(C)CO)C[C@H]3C(=O)C[C@]12C)N(C)C
> 10 µM

Next entry: CC[C@H](C)C(=O)N[C@H]1CC=C2C[C@H]3C(=O)C[C@]4(C)[C@@H]([C@H](C)N(C)C)[C@H](OC(C)=O)C[C@@]4(C)[C@@H]3CC[C@H]2[C@]1(C)C=O
> 100 µM
